I'd appreciate it if you could supply self-cleavage values for the items below.
B1: CPEB3 Ribozyme (parent)
chain: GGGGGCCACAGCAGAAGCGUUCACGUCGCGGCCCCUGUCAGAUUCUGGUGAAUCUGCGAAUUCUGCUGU

# Variants of: B1
# assayComment: self-cleavage, relative activity (ratio to wild type); higher = more cleavage; co-transcriptional
Please give the numeric answer without any surrounding text.

response.value for C34U U67C (field: self-cleavage) = 1.01

response.value for C39G U46C (field: self-cleavage) = 0.903

response.value for G19A C45U (field: self-cleavage) = 0.167

response.value for C27A G56A (field: self-cleavage) = 0.276

response.value for U21G U64G (field: self-cleavage) = 0.295

response.value for C9U A60U (field: self-cleavage) = 0.538

response.value for G5C C35U (field: self-cleavage) = 0.162

response.value for G58C U61C (field: self-cleavage) = 0.844

response.value for C27A U36A (field: self-cleavage) = 0.207

response.value for G2C G65A (field: self-cleavage) = 0.0284

response.value for G37U G50C (field: self-cleavage) = 0.315

response.value for G19C C32G (field: self-cleavage) = 0.207

response.value for C39A G58C (field: self-cleavage) = 0.907

response.value for G11A A40U (field: self-cleavage) = 0.357

response.value for A10C C24G (field: self-cleavage) = 0.478

response.value for G37U A60U (field: self-cleavage) = 0.195

response.value for A16U U46A (field: self-cleavage) = 0.866

response.value for G37C G48C (field: self-cleavage) = 0.226

response.value for G14A U69A (field: self-cleavage) = 0.875

response.value for A15U C45U (field: self-cleavage) = 0.858

response.value for G14C C57G (field: self-cleavage) = 0.203

response.value for G2U A13G (field: self-cleavage) = 0.0748

response.value for G5C G31C (field: self-cleavage) = 0.0712

response.value for G3U G48C (field: self-cleavage) = 0.151

response.value for C32G G68U (field: self-cleavage) = 0.815

response.value for G1A G14U (field: self-cleavage) = 0.0964

response.value for C29U A59U (field: self-cleavage) = 0.232

response.value for G19A U38G (field: self-cleavage) = 0.156

response.value for A8U C66U (field: self-cleavage) = 0.993

response.value for A10G C45G (field: self-cleavage) = 0.839

response.value for U21C U69G (field: self-cleavage) = 0.933

response.value for G56A A59C (field: self-cleavage) = 0.432

response.value for U26C C57U (field: self-cleavage) = 0.408

response.value for G37A G56U (field: self-cleavage) = 0.257

response.value for G5A C9U (field: self-cleavage) = 1.02

response.value for G11C C39U (field: self-cleavage) = 0.399

response.value for C6A C24U (field: self-cleavage) = 0.195

response.value for C29U G56C (field: self-cleavage) = 0.26

response.value for G14U U67A (field: self-cleavage) = 0.733

response.value for A16G U36A (field: self-cleavage) = 0.179

response.value for C35G U36A (field: self-cleavage) = 0.21

response.value for G17U U46G (field: self-cleavage) = 0.599

response.value for A8C U21A (field: self-cleavage) = 0.972

response.value for G11U G47U (field: self-cleavage) = 0.941

response.value for C9U A15U (field: self-cleavage) = 0.931

response.value for C6U C33A (field: self-cleavage) = 0.257

response.value for C6A G50A (field: self-cleavage) = 0.708

response.value for G48C A59U (field: self-cleavage) = 0.861

response.value for C18G C24U (field: self-cleavage) = 0.106

response.value for U26G C29A (field: self-cleavage) = 0.329

response.value for G3A G25A (field: self-cleavage) = 0.0615

response.value for A42U C66G (field: self-cleavage) = 0.682

response.value for C24U G47C (field: self-cleavage) = 0.915

response.value for G47U G68A (field: self-cleavage) = 0.991

response.value for C34G U38C (field: self-cleavage) = 0.441

response.value for C22G A23U (field: self-cleavage) = 0.24

response.value for G11C G19A (field: self-cleavage) = 0.0742

response.value for U38A U46C (field: self-cleavage) = 0.954

response.value for C7U C66U (field: self-cleavage) = 0.982

response.value for C32U G48A (field: self-cleavage) = 1

response.value for C18A U53A (field: self-cleavage) = 0.188

response.value for C12G G14C (field: self-cleavage) = 0.0732

response.value for C32G A60C (field: self-cleavage) = 0.194

response.value for A16U U55C (field: self-cleavage) = 0.539

response.value for G25C G56U (field: self-cleavage) = 0.256

response.value for C39G U69A (field: self-cleavage) = 0.967

response.value for C34A U49G (field: self-cleavage) = 0.865

response.value for G4A A23C (field: self-cleavage) = 0.573

response.value for C63U U69C (field: self-cleavage) = 1.06

response.value for G5C U20A (field: self-cleavage) = 0.0824

response.value for G31U U44A (field: self-cleavage) = 0.577

response.value for G5U G11A (field: self-cleavage) = 0.185

response.value for U20C U67C (field: self-cleavage) = 0.131
